Catalogue of INHIBITION readings, one per entry.
- Tested on: Plasmodium berghei
- assay info: Screen against P. berghei liver stage (PbLuc), transformed with Luciferase, at 10uM
- Format: functional, HepG2
- details: tested at 10 uM
Screen size: about 69,000 compounds; about 8,600 (12%) showed an effect of 50% or more. Many of the other results were omitted from the sample, so strong results are more common in it than they were.
Please respond with the number in % and leave the unit unwritten.

The examples below pair each entry with its known result.
# compound, units, measured result
data = [
    ("CCN(C)S(=O)(=O)N1CCCC(CO)(CC=C(C)C)C1 (stereo unspecified)", "%", -3.96),
    ("O=C(CCc1ccc(Cl)s1)N1CCC(N2CCNC2=O)CC1", "%", 60.9),
    ("CCCN1C[C@@H]2CC[C@H]1CN(Cc1ccc(Cn3cccn3)cc1)C2", "%", -27.5),
    ("CCc1ncc2c(n1)CN(CCCc1nc3ccccc3o1)CC2", "%", 38.5),
]

Using known records, supply INHIBITION for `CC(C)NC(=O)N1CCc2ncc(CN3CCOCC3)n2CC1` 21.6

Return value of INHIBITION for input `O=C(CCc1cccs1)N1CCC(N2CCNC2=O)CC1` , no commentary. 27.8

---

- Tested on: Plasmodium berghei
- assay info: Screen against P. berghei liver stage (PbLuc), transformed with Luciferase, at 10uM
- Format: functional, HepG2
- details: tested at 10 uM
Screen size: about 69,000 compounds; about 8,600 (12%) showed an effect of 50% or more. Only a selection was taken, and strong results are over-represented in it overall.
parameter measured: INHIBITION (%)
Express the result in % but write the number alone.

Reference set (5 entries):
# compound, INHIBITION / %
rows = [
    ("O=C(NCc1ccc(F)cc1)NCC(O)(c1cccs1)C1CC1 (stereo unspecified)", -11.8),
    ("CN(Cc1ccccc1NCc1cscn1)C(=O)c1cccs1", 20.6),
    ("COc1ccc2oc(-c3cn(C)nc3C)c(O)c(=O)c2c1", 8.49),
    ("Cc1c(Cl)cccc1NCc1nc2n(n1)CCCCC2", 26.7),
    ("O=C(NCC(O)(c1ccco1)C1CC1)c1ccccc1F (stereo unspecified)", 9.79),
]

Please look at the following compound next.
Quote INHIBITION reported for `CN(Cc1ccco1)C(=O)c1cccc(N2CCCC2=O)c1` please. -27.9

---

The entries below come with measured INHIBITION values attached.
- Tested on: Plasmodium berghei
- assay info: Screen against P. berghei liver stage (PbLuc), transformed with Luciferase, at 10uM
- Format: functional, HepG2
- details: tested at 10 uM
Among all 69,000 compounds or so, about 8,600 (12%) showed an effect of 50% or more. The sample holds strong results, similar compounds and a random draw of the others, so the mix is not that of the screen.
Output spec: scalar in %, unitless text.

Solved entries:
# compound, INHIBITION / %
records = [
    ("O=C1NC2(Cc3ccccc31)CN(CC1CCCC1)C2", 45.8),
    ("CC(NC(=O)Nc1cccnc1N1CCCC1)c1ccncc1 (configuration not stated)", 7.12),
    ("Cc1ccc2c(n1)N(C)CCN(C(=O)C1CC1)C2", 7.84),
]

For the compound `Cc1nn(C(C)C)c(C)c1NC(=O)Nc1cccnc1N1CCCC1` , give its reported INHIBITION. 26.9

Assign INHIBITION to the following record: CC(NC(=O)Nc1cccnc1N1CCCC1)c1ccccn1 (configuration not stated) -17.9

// fetch INHIBITION given entry Cc1cc(C)nc(N2CCOC(c3cc(CCO)[nH]n3)C2)n1 (configuration not stated) 2.99

For the compound O=C(NCCn1cccc1)C(c1ccccc1)N1CCCC1 (configuration not stated) , give its measured INHIBITION value. 15.4

Return INHIBITION for the following compound: `CN(C)CCOCc1nnc2n1CCN(Cc1ccco1)CC2` 16.4

---

Reported INHIBITION values are given for each entry in this list.
- System: Plasmodium berghei
- assay info: Screen against P. berghei liver stage (PbLuc), transformed with Luciferase, at 10uM
- Type: functional, HepG2
- details: tested at 10 uM
Hit rate of the full screen: of about 69,000 compounds, about 8,600 (12%) showed an effect of 50% or more. For the sample, strong results were picked, then their nearest neighbours and some compounds at random.
Give the figure together with its unit, number first.

Look up INHIBITION of CCN(CC)C(C(=O)Nc1ccc2c(c1)CCC(=O)N2)c1ccccc1 (configuration not stated) and report it. 56.8%

Return reported INHIBITION. Input compound: `O=C(CNC(=O)c1cnccn1)Nc1ncc[nH]1` 71.2%

Answer with the recorded INHIBITION of CCN(C)C(C(=O)Nc1ccc2c(c1)CCC(=O)N2)c1ccccc1 (configuration not stated) only. 36.3%

Respond only with INHIBITION recorded for `O=C(NCC(=O)N1CCc2ccccc2C1)c1cnccn1` -112%

Kindly indicate its recorded INHIBITION. Item: `CC(C)(C)c1ccc(C(=O)NCCCNC(=O)c2cnccn2)cc1` -23.45%

---

- Test system: Plasmodium berghei
- assay info: Screen against P. berghei liver stage (PbLuc), transformed with Luciferase, at 10uM
- Assay type: functional, HepG2
- details: tested at 10 uM
About 8,600 (12%) of roughly 69,000 compounds showed an effect of 50% or more. The full list was thinned out, with strong results kept by preference.
parameter measured: INHIBITION (%)
Write the number in % without appending the unit.

# compound, INHIBITION [%]
measured = [
    ("CCOc1ccc2nc(CN3CCC(CN)C3)ccc2c1 (stereo unspecified)", 57.5),
]

Turning now to a further compound:
Supply INHIBITION measured with Plasmodium berghei for COc1nc2ccccc2cc1CN1CCCC(CNC(C)=O)C1 (stereo unspecified) . 21.85

---

- System: Plasmodium berghei
- assay info: Screen against P. berghei liver stage (PbLuc), transformed with Luciferase, at 10uM
- Assay type: functional, HepG2
- details: tested at 10 uM
The whole screen tested about 69,000 compounds, of which about 8,600 (12%) showed an effect of 50% or more. What follows is part of a selection rich in strong results, with near analogues and random picks from the rest.
// map INHIBITION onto a label; ranges b0 (below -20%), b1 (-20% to below 70%), b2 (70% or more)

Solved entries:
# compound, class label
measured = [
    ("CCCn1ncc(-c2ccnc(NC3CCCc4ccccc43)n2)c1C (configuration not stated)", "b2"),
    ("Cc1nn(CCO)c(C)c1CNC1CCCCc2ccccc21 (configuration not stated)", "b1"),
    ("CN(Cc1noc(C2CC2)n1)C1CCN(CCn2cccn2)C1 (configuration not stated)", "b0"),
]

Exercise: read the entry `CCCn1ncc(C(=O)N2CCN(C3Cc4ccccc4C3)CC2)c1C` and state which class it falls under. b0

Category of O=S(=O)(c1ccccc1)N1CCOC(Cn2ccnc2)C1 (configuration not stated) : b1

---

- Test system: Plasmodium berghei
- assay info: Screen against P. berghei liver stage (PbLuc), transformed with Luciferase, at 10uM
- Type: functional, HepG2
- details: tested at 10 uM
Hit rate of the full screen: of about 69,000 compounds, about 8,600 (12%) showed an effect of 50% or more. The full list was thinned out, with strong results kept by preference.
Each record is given 1 if its reported INHIBITION is strictly below 30%. Records at or above 30% are given -1.

In plain terms, does `CCc1nnc(NC(=O)NCCN(C)C(=O)OC(C)(C)C)s1` come in under 30% for INHIBITION? 1

I wonder whether Cn1cncc1CN1CCCC1c1cncc(Oc2ccc(Cl)cc2)n1 (centres undefined) has INHIBITION below 30%. Can you tell? -1

Below 30% on INHIBITION? Entry NC(=O)C1CCN(C(=O)NCc2ccccc2-n2cccn2)C1 (centres undefined) 1

Please check: INHIBITION for `CC(=O)N1CCCN(C(=O)NCc2cccnc2OC(C)C)CC1` , strictly under 30% or not? 1

Criterion: INHIBITION strictly below 30%. Is it met by CC(C)C(=O)N1Cc2ccccc2CC2(CCCCN2C)C1 (centres undefined) ? -1

# strict comparison: is reported INHIBITION < 30%? input = `COc1cccn(CC(=O)N2CCCC3(CCCCC3)C2)c1=O` 1

Problem: For the molecule `C[C@H]1C[C@@H]2CCN(C(=O)c3cnccn3)C[C@H]2O1` , is INHIBITION under 30%? 1

In plain terms, does CNCC(=O)N1CCCC1c1cncc(Oc2ccc(F)cc2)n1 (centres undefined) come in under 30% for INHIBITION? -1

For this molecule, is INHIBITION lower than 30%? Cc1cc(C2CCCN2C(=O)NCc2cccnc2OC(C)C)on1 (centres undefined) 1

Threshold test, INHIBITION < 30%: `Cc1nccn1CCC(=O)N1CCC2(CCC(=O)N(CC3CC3)C2)CC1` -1

Item Cc1nc(C)n(CC2CCCCN2CCOc2ccc(C#N)cc2)n1 (centres undefined) : INHIBITION beneath 30%, strictly? -1

Does CC(C)Oc1ncccc1CNC(=O)N1CCC1c1ccccc1 (centres undefined) have INHIBITION strictly under 30%? -1

Just wondering, is INHIBITION of CC(CO)(NCc1noc(Cc2ccccc2)n1)C1CCCCC1 (centres undefined) below 30%? 1

Lab log: compare recorded INHIBITION with 30%; is it strictly lower for CC(C)C(=O)N1Cc2ccccc2CC2(CCCN2C)C1 (centres undefined) ? -1

Would you kindly verify if INHIBITION of `CC(C)(C)c1cn(C2CCN(C(=O)c3cncnc3)CC2)nn1` is strictly less than 30%? -1

Lab note: INHIBITION threshold 30%. Does this molecule come in strictly under it? Cc1cc(C(=O)N2CCCC(c3cc(=O)nc4n3CCC4)C2)on1 (centres undefined) 1

INHIBITION under 30%? Item: `Cc1nonc1CC(=O)N1C[C@H]2CC[C@@H](C1)N(Cc1ccccc1)C2=O` 1

This collection of values is drawn from ChEMBL document CHEMBL4513216.
